Target or test system: HLA-A*02:01 (human)
Measurement notes: radioligand competition, purified MHC
# met = IC50 below 0.9 µM (exclusive); not met = IC50 at/above 0.9 µM

STSAFVETV (modifications not checked) [… (SEQ ID NO: 19)] | met
VGYLQPRTF (modifications not checked) [… (SEQ ID NO: 39)] | not met
LEDKAFQL (modifications not checked) [LEDKAFQL (SEQ ID NO: 10)] | not met

is_below(IC50, 0.9 µM) for LATNNLVVM (modifications not checked) [… (SEQ ID NO: 16)] ? not met

is_below(IC50, 0.9 µM) for KNIDGYFKIY (modifications not checked) [… (SEQ ID NO: 36)] ? not met

Origin of measurements: patent US20220088180A1
